Let's look at some molecules and their measured IC50.
molecular target: GTPase KRas (Homo sapiens, UniProt P01116, G13D); assay: Inhibition of Biotinylated KRAS G13D mutant (unknown origin) incubated for 20 mins in presence of BODIPY-GDP by HTRF assay
Sequence (P01116 whole entry G13D): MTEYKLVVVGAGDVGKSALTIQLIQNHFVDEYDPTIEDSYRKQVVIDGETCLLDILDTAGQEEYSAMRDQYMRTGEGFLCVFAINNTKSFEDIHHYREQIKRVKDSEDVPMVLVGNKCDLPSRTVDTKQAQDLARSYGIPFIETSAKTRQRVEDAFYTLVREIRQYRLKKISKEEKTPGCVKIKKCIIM
# value in nM; strip the unit string

Here's what some known entries look like.
| MOLECULE | EXPERIMENTAL_SYSTEM | IC50 (nM) |
| --- | --- | --- |
| C=C1CN2CCC[C@@]2(COc2nc(N3CCN(C(=O)/C=C/c4cccc5c4CN4CCC5C4)C[C@@H]3C)c3cc(Cl)c(-c4nc(N)cc(C)c4C(F)(F)F)c(F)c3n2)C1 (stereo in doubt; form 2) | GTPase KRas (Homo sapiens, UniProt P01116, G13D) | 550 |
| Cc1cc(N)nc(-c2cc3nc(OC[C@@H]4CCCN4C)nc4c3c(c2Cl)OC[C@@H]2CN(C(=O)C3CCC5(CNC5)O3)CCN42)c1C(F)(F)F (mixture of isomers) | GTPase KRas (Homo sapiens, UniProt P01116, G13D) | 1600 |
| C=C1CN2CCC[C@@]2(COc2nc3c4c(c(Cl)c(-c5nc(N)cc(C)c5C(F)(F)F)cc4n2)OC[C@@H]2CN(C(=O)/C=C/c4nccc5c4CNCC5)CCN32)C1 | GTPase KRas (Homo sapiens, UniProt P01116, G13D) | 13 |
| Cc1cc(N)nc(-c2cc3nc(OC[C@@H]4CCCN4C)nc4c3c(c2Cl)OC[C@@H]2CN(C(=O)/C=C/c3nccc5c3CNCC5)CCN42)c1C(F)(F)F | GTPase KRas (Homo sapiens, UniProt P01116, G13D) | 180 |
| Cc1cc(N)nc(-c2cc3nc(OC[C@@H]4CCCN4C)nc4c3c(c2Cl)OC[C@@H]2CN(C(=O)CC3CCNCC3)CCN42)c1C(F)(F)F | GTPase KRas (Homo sapiens, UniProt P01116, G13D) | 4800 |

Here is another molecule to look at.
Request: IC50 lookup needed for Cc1cc(N)nc(-c2cc3nc(OC[C@@H]4CCCN4C)nc4c3c(c2Cl)OC[C@@H]2CN(C(=O)C3CC35CCNCC5)CCN42)c1C(F)(F)F (mixture of isomers) , thanks.
Result: 2400
